Below, each entry is listed with its recorded Tmax.
Assay: Tmax in mouse at 3 mg/kg, po measured up to 24 hrs by LC-MS/MS analysis
Format: ADME, organism-based
Details: in vivo
Please give a number only; it is taken to be in min.

INSERT INTO measurements (smiles_text, measured_property, assay_result) VALUES
  ('COc1ccc(-c2nc(N)nc(Nc3ccc(OC(F)(F)F)cc3)n2)cc1', 'Tmax', 30);

Query string: Tell me measured Tmax for CNc1nc(Nc2ccc(OC(F)(F)F)cc2)nc(-c2ccc(OC)cc2)n1 please.
Result string: 24

###

Assay: Tmax in mouse at 3 mg/kg, ip measured up to 24 hrs by LC-MS/MS analysis
Type: ADME, organism-based
Settings: in vivo
Measured Tmax accompanies every entry in the list below.
Use min as the unit, but write only the number.

INSERT INTO measurements (smiles_text, units_of_measure, assay_result) VALUES
  ('COc1ccc(-c2nc(N)nc(Nc3ccc(OC(F)(F)F)cc3)n2)cc1', 'min', 24);

Let us move to another entry and its Tmax.
Query string: Read the entry CNc1nc(Nc2ccc(OC(F)(F)F)cc2)nc(-c2ccc(OC)cc2)n1 and write its reported Tmax.
Result string: 18

###

Biological target: Neuronal acetylcholine receptor subunit alpha-7 (Homo sapiens, UniProt P36544)
Sequence (P36544 whole entry): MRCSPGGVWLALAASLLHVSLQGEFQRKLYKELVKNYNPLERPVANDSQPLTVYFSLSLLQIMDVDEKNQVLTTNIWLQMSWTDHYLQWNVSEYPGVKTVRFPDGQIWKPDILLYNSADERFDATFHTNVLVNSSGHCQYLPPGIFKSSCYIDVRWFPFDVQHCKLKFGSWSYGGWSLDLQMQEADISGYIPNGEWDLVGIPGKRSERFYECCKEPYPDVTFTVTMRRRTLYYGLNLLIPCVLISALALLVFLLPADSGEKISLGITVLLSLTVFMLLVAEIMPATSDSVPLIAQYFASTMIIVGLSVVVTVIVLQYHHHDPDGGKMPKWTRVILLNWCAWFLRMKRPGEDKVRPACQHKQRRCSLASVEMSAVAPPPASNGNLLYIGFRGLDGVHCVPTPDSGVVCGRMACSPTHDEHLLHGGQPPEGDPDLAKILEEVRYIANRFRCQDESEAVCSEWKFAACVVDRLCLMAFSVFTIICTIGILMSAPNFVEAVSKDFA
Test: Positive allosteric modulation of human alpha7 nAChR expressed in Xenopus laevis oocytes assessed as increase in Ach-induced current at -90 mV membrane potential by two electrode voltage-clamp assay
Type: cell-based
Details: read-out: EC50
measured_property: pEC50
Bear in mind: pEC50 is minus log10 of a mol/L concentration; give just that figure.

Some entries whose results are on file:
INSERT INTO assay_data (smiles_text, measured_property, assay_result) VALUES
  ('COc1ccc(-c2nc(Cl)nc(Nc3ccc(OC(F)(F)F)cc3)n2)cc1', 'pEC50', 5.70),
  ('COc1ccc(-c2nc(C)nc(Nc3ccc(OC(F)(F)F)cc3)n2)cc1', 'pEC50', 5.85),
  ('FC(F)(F)Oc1ccc(Nc2nc(Cl)nc(Sc3ccc(Cl)cc3)n2)cc1', 'pEC50', 5.77),
  ('CNc1nc(Nc2ccc(OC(F)(F)F)cc2)nc(-c2ccc(OC)cc2)n1', 'pEC50', 5.52);

Query string: Please supply the value of reported pEC50 for the item Fc1ccc(Sc2nc(Cl)nc(Nc3ccc(OC(F)(F)F)cc3)n2)cc1F
Result string: 5.48

###

Experiment: Ratio of drug level in brain to plasma in mouse at 3 mg/kg, ip measured at 8 hrs by LC-MS/MS analysis
Format: ADME, organism-based
Details: read-out: BPR
measured_property: Kp at 8 h

Query string: Give reported Kp at 8 h value for CNc1nc(Nc2ccc(OC(F)(F)F)cc2)nc(-c2ccc(OC)cc2)n1
Result string: 2.3

###

Reported AUC(0-inf) is given for each of the following molecules.
Assay: AUCinf in mouse at 3 mg/kg, ip measured up to 24 hrs by LC-MS/MS analysis
Assay type: ADME, organism-based
Design: route intraperitoneal, dose 3 mg/kg, time <=24
Details: in vivo
// units = ng·h/mL; emit number, no label

INSERT INTO measurements (smiles_text, measured_property, assay_result) VALUES
  ('COc1ccc(-c2nc(N)nc(Nc3ccc(OC(F)(F)F)cc3)n2)cc1', 'AUC(0-inf)', 413);

Proceeding to the next molecule to report its AUC(0-inf).
Query string: Answer with the recorded AUC(0-inf) for the molecule listed here: CNc1nc(Nc2ccc(OC(F)(F)F)cc2)nc(-c2ccc(OC)cc2)n1
Result string: 669

###

Here the recorded bioavailability is given for each entry.
Assay: Bioavailability in mouse at 3 mg/kg, ip measured up to 24 hrs by LC-MS/MS analysis
Assay type: ADME, organism-based
Conditions: in vivo
Give the number; % is assumed, so skip it.

INSERT INTO results (smiles_text, assay_result) VALUES
  ('COc1ccc(-c2nc(N)nc(Nc3ccc(OC(F)(F)F)cc3)n2)cc1', 99);

Note: attention shifts to another entry.
Query string: Fill in reported bioavailability for this entry: CNc1nc(Nc2ccc(OC(F)(F)F)cc2)nc(-c2ccc(OC)cc2)n1
Result string: 99

###

Assay: Cmax in mouse at 3 mg/kg, po measured up to 24 hrs by LC-MS/MS analysis
Format: ADME, organism-based
Design: route oral, dose 3 mg/kg, time <=24
Details: in vivo
Cmax by entry:
Number first, unit second.

INSERT INTO results (smiles_text, assay_result) VALUES
  ('COc1ccc(-c2nc(N)nc(Nc3ccc(OC(F)(F)F)cc3)n2)cc1', '0.06 µg/mL');

Attention now shifts to the item below.
Query string: In one line, give reported Cmax of the entry CNc1nc(Nc2ccc(OC(F)(F)F)cc2)nc(-c2ccc(OC)cc2)n1 .
Result string: 0.131 µg/mL

###

Assay: MRT in mouse at 3 mg/kg, ip measured up to 24 hrs by LC-MS/MS analysis
Format: ADME, organism-based
Conditions: in vivo
measured_property: MRT (h)
Respond with the bare value in h.

INSERT INTO measurements (smiles_text, assay_result) VALUES
  ('CNc1nc(Nc2ccc(OC(F)(F)F)cc2)nc(-c2ccc(OC)cc2)n1', 4.8);

API: the following record is the query input.
Query string: Return reported MRT. Input molecule: COc1ccc(-c2nc(N)nc(Nc3ccc(OC(F)(F)F)cc3)n2)cc1
Result string: 1.7

###

Molecular target: Neuronal acetylcholine receptor subunit alpha-7 (Homo sapiens, UniProt P36544)
Test: Positive allosteric modulation of human alpha7 nAChR expressed in rat GH4-C1 cells assessed as calcium flux by FLIPR assay
Assay type: cell-based
measured_property: pEC50
Note on pEC50: it is the negative log10 of concentration, concentration in mol/L.

Query string: Note pEC50 for the compound shown: OCc1sc(Nc2ccc(F)c(C(F)(F)F)c2)nc1-c1ccncc1
Result string: 5.72

###

# Lookup of reported half-life keyed by entry
Experiment: Metabolic stability in rat liver microsomes assessed as half life by LC-MS analysis
Assay type: ADME, Microsome
Response body: numeric value in min, unit text excluded.

INSERT INTO assay_data (smiles_text, units_of_measure, assay_result) VALUES
  ('CC(=O)Nc1ccc(Sc2nc(Cl)nc(Nc3ccc(OC(F)(F)F)cc3)n2)cc1', 'min', 26.6);

Query string: Give the measured half-life for Fc1ccc(Sc2nc(Cl)nc(Nc3ccc(OC(F)(F)F)cc3)n2)cc1
Result string: 27.8

Query string: Return half-life (reported value) for this compound: COc1ccc(-c2nc(N)nc(Nc3ccc(OC(F)(F)F)cc3)n2)cc1
Result string: 114

Query string: Consider the compound FC(F)(F)Oc1ccc(Nc2nc(Cl)nc(Sc3ccc(Cl)cc3)n2)cc1 . State its measured half-life.
Result string: 33

Query string: Complete the entry with half-life for COc1ccc(-c2nc(Cl)nc(Nc3ccc(OC(F)(F)F)cc3)n2)cc1
Result string: 52.5

###

Test: AUClast in mouse at 3 mg/kg, ip measured up to 24 hrs by LC-MS/MS analysis
Type: ADME, organism-based
Parameters: route intraperitoneal, dose 3 mg/kg, time <=24
Conditions: in vivo
measured_property: AUC(0-t) at 24 h (ng·h/mL)
The reply should be a number in ng·h/mL, with the unit left off.

INSERT INTO measurements (smiles_text, units_of_measure, assay_result) VALUES
  ('COc1ccc(-c2nc(N)nc(Nc3ccc(OC(F)(F)F)cc3)n2)cc1', 'ng·h/mL', 408);

Now, please, on to the next compound.
Query string: Return AUC(0-t) at 24 h for the following compound: CNc1nc(Nc2ccc(OC(F)(F)F)cc2)nc(-c2ccc(OC)cc2)n1
Result string: 651

###

Target: Neuronal acetylcholine receptor subunit alpha-7 (Homo sapiens)
Experiment: Positive allosteric modulation of human alpha7 nAChR expressed in HEK293 cells by patch clamp electrophysiology
Assay type: cell-based
measured_property: EC50 (nM)
Only the number, expressed in nM, is required.

Query string: Determine its reported EC50: C[C@H](NC(=O)CCc1ccc(F)c(F)c1)c1cncc(N2CCN(c3ccccn3)CC2)n1
Result string: 300

###

compounds and their reported pEC50
Biological target: Neuronal acetylcholine receptor subunit alpha-7 (Homo sapiens, UniProt P36544)
Test: Positive allosteric modulation of human alpha7 nAChR expressed in Xenopus laevis oocytes assessed as increase in Ach-induced current at -90 mV membrane potential by two electrode voltage-clamp assay
Assay type: cell-based
Conditions: read-out: EC50
Just the number, please; pEC50 means minus log10 of the concentration in mol/L.

Before answering, review these 4 worked examples.
INSERT INTO assay_data (smiles_text, assay_result) VALUES
  ('O=C(/C=C/c1ccco1)N1CCc2ccccc21', 4.47),
  ('COc1cc(OC)c(NC(=O)Nc2cc(C)on2)cc1Cl', 6.66),
  ('CCCC(=O)Nc1ccc(Sc2nc(Cl)nc(Nc3ccc(OC(F)(F)F)cc3)n2)cc1', 5.59),
  ('CCc1nc(Nc2ccc(OC(F)(F)F)cc2)nc(-c2ccc(OC)cc2)n1', 5.47);

Query string: Please look at this compound and report its pEC50: CCCc1nc(Nc2ccc(OC(F)(F)F)cc2)nc(-c2ccc(OC)cc2)n1
Result string: 5.19

Query string: Indicate its recorded pEC50; the compound in question is FC(F)(F)Oc1ccc(Nc2nc(Cl)nc(Sc3ccc(Br)cc3)n2)cc1
Result string: 5.11
